Molecular target: TRβ (Homo sapiens, UniProt P10828)
Sequence (P10828 217-461 limits assumed): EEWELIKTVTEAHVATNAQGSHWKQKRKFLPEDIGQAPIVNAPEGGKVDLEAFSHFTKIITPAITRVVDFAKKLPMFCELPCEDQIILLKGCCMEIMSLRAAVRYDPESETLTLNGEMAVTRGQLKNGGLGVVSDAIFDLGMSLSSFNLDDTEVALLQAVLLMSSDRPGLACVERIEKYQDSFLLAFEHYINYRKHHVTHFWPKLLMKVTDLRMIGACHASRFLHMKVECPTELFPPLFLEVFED
Experiment: Thyroid-hormone reporter-gene assay (Gal4-TR hybrid, luciferase), TRβ
Settings: HEK293-derived reporter cells, 24 hr incubation
pEC50: −log10 of the molar value.
Please provide measured pEC50 for the entries that follow.

As a guide, the following entries are already answered.
# COMPOUND, EXPERIMENTAL_ENDPOINT, RESULT
records = [
    ("CCc1cc(OCC(=O)O)cc(C)c1Cc1ccc(O)c(C(C)C)c1 [Compound 16]", "pEC50", "7.00 to 8.00"),
    ("Cc1cc(OCC(=O)O)cc(C(F)(F)F)c1Cc1ccc(O)c(C(C)C)c1 [Compound 11]", "pEC50", "7.00 to 8.00"),
    ("Cc1cc(OCC(=O)O)cc(Cl)c1Cc1ccc(O)c(C(C)C)c1 [Compound 2]", "pEC50", "6.00 to 7.00"),
    ("Cc1cc(OCC(=O)O)cc(Br)c1Cc1ccc(O)c(C(C)C)c1 [Compound 5]", "pEC50", "7.00 to 8.00"),
    ("CCc1cc(OCC(=O)O)cc(Cl)c1Cc1ccc(O)c(C(C)C)c1 [Compound 8]", "pEC50", "7.00 to 8.00"),
]

Give pEC50 for all compounds that follow.
1. Cc1cc(OCC(=O)O)cc(C2CC2)c1Cc1ccc(O)c(C(C)C)c1 [Compound 27]
2. C/C=C/c1cc(OCC(=O)O)cc(C)c1Cc1ccc(O)c(C(C)C)c1 [Compound 23]
3. CC(C)c1cc(Cc2c(Cl)cc(OCC(=O)O)cc2C(C)C)ccc1O [Compound 31]
4. C=C(C)c1cc(OCC(=O)O)cc(Cl)c1Cc1ccc(O)c(C(C)C)c1 [Compound 30]

1: 6.00 to 7.00; 2: 6.00 to 7.00; 3: > 8.00; 4: 7.00 to 8.00

// each listed compound needs a value for pEC50
1. Cc1cc(OCC(=O)O)cc(C(C)C)c1Cc1ccc(O)c(C(C)C)c1 [Compound 21]
2. CCCc1cc(OCC(=O)O)cc(C)c1Cc1ccc(O)c(C(C)C)c1 [Compound 25]
3. CC(C)c1cc(Cc2c(Cl)cc(OCC(=O)O)cc2C(F)(F)F)ccc1O [Compound 18]
4. C=C(C)c1cc(OCC(=O)O)cc(C)c1Cc1ccc(O)c(C(C)C)c1 [Compound 20]

7.00 to 8.00
6.00 to 7.00
7.00 to 8.00
7.00 to 8.00

====

Target: TRα (Homo sapiens)
Construct: The firefly luciferase reporter under the Gal4 UAS is a separate reporter gene
Sequence (P10827 163-410 isoform P10827-2 limits assumed): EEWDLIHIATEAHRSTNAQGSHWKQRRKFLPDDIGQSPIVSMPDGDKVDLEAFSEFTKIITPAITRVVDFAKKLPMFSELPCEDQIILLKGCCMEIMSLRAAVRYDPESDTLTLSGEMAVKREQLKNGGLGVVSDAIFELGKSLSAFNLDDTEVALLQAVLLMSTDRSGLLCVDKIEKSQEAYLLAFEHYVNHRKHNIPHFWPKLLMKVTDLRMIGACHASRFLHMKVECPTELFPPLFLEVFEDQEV
Experiment: Thyroid-hormone reporter-gene assay (Gal4-TR hybrid, luciferase), TRα
Conditions: HEK293-derived reporter cells, 24 hr incubation
pEC50: −log10 of the molar value.
EXPERIMENTAL_ENDPOINT: pEC50

# COMPOUND_STRING, MEASURED_ON, pEC50
data = [
    ("CCc1cc(OCC(=O)O)cc(Cl)c1Cc1ccc(O)c(C(C)C)c1", "TRα (Homo sapiens)", "6.00 to 7.00"),
]

Working through the 2 molecules below one at a time, give pEC50 for each.
1. Cc1cc(OCC(=O)O)cc(C(C)C)c1Cc1ccc(O)c(C(C)C)c1
2. Cc1cc(OCC(=O)O)cc(C2CC2)c1Cc1ccc(O)c(C(C)C)c1

7.00 to 8.00
< 6.00
